molecular target: hMC4-R (Homo sapiens (Human)); experiment: Competitive inhibition binding assay using [I125]-NDP-α-MSH, hMC4-R; conditions: membranes of HEK-293 cells expressing recombinant hMC4-R, read-out: MC4-R Ki
Sequence (P32245 whole entry): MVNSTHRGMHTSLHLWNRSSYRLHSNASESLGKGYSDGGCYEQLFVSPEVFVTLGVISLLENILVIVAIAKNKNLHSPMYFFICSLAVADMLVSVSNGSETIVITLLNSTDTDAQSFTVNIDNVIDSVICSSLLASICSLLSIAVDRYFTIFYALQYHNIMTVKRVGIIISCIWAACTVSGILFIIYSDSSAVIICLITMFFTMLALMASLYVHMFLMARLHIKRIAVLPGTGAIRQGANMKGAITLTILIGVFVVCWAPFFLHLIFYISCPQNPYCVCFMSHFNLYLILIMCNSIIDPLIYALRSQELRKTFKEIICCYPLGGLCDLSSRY
Provide the recorded log10 of Ki for the entries that follow.
Quick note: numbers are log10 of Ki, with nM as the unit.

Ask | Please give measured log10 of Ki of the following entry: CC(=O)N[C@@H](CCCNC(=N)N)C(=O)N[C@H]1CCC(=O)NCCC[C@@H](C(N)=O)NC(=O)[C@H](Cc2c[nH]c3ccccc23)NC(=O)[C@H](CCCNC(=N)N)NC(=O)[C@@H](Cc2cccc(Cl)c2)NC(=O)[C@H](CO)NC1=O [Example 35]
Reply | 1.00

Ask | Quote log10 of Ki reported for CC(=O)N[C@@H](CCCNC(=N)N)C(=O)N[C@H]1CCC(=O)NCCC[C@@H](C(N)=O)NC(=O)[C@H](Cc2c[nH]c3ccccc23)NC(=O)[C@H](CCCNC(=N)N)NC(=O)[C@@H](Cc2ccccc2C)NC(=O)[C@H](CCC(N)=O)NC1=O [Example 110] please.
Reply | 0.70

Ask | Specify reported log10 of Ki for the compound shown: CC(=O)N[C@H](CCCNC(=N)N)C(=O)N[C@H]1CC(=O)NCCCC[C@@H](C(N)=O)NC(=O)[C@H](Cc2c[nH]c3ccccc23)NC(=O)[C@H](CCCNC(=N)N)NC(=O)[C@@H](Cc2cccc(Cl)c2)NC(=O)[C@H](CCC(N)=O)NC1=O [Example 80]
Reply | 0.85

Ask | State its log10 of Ki for this compound: CC(=O)N[C@@H](CCCNC(=N)N)C(=O)N[C@H]1CCCNC(=O)CC[C@@H](C(N)=O)NC(=O)[C@H](Cc2c[nH]c3ccccc23)NC(=O)[C@H](CCCNC(=N)N)NC(=O)[C@@H](Cc2ccccc2C(F)(F)F)NC(=O)[C@H](CCC(N)=O)NC1=O [Example 115]
Reply | 0.60

Ask | Input CC(=O)N[C@@H](CCCNC(=N)N)C(=O)N[C@H]1CCC(=O)NCCC[C@@H](C(N)=O)NC(=O)[C@H](Cc2c[nH]c3ccccc23)NC(=O)[C@H](CCCNC(=N)N)NC(=O)[C@@H](Cc2ccc(C#N)cc2)NC(=O)[C@@H]2CCCN2C1=O [Example 39] , output reported log10 of Ki.
Reply | 0.60

Ask | Determine its reported log10 of Ki: CC(=O)N[C@@H](CCCNC(=N)N)C(=O)N[C@H]1CCC(=O)NCCC[C@@H](C(N)=O)NC(=O)[C@H](Cc2c[nH]c3ccccc23)NC(=O)[C@H](CCCNC(=N)N)NC(=O)[C@@H](Cc2ccccc2Cl)NC(=O)[C@@H]2CCCN2C1=O [Example 88]
Reply | 0.70

Ask | // Input: CC(=O)N[C@@H](CCCNC(=N)N)C(=O)N[C@H]1CCC(=O)NCCC[C@@H](C(N)=O)NC(=O)[C@H](Cc2c[nH]c3ccccc23)NC(=O)[C@H](CCCNC(=N)N)NC(=O)[C@@H](Cc2ccc(C#N)cc2)NC(=O)[C@H](C(C)C)NC1=O [Example 42] . Output its log10 of Ki only.
Reply | 0.78

Ask | Please report the measured log10 of Ki for CC(=O)N[C@@H](CCCNC(=N)N)C(=O)N[C@H]1CCC(=O)NCCC[C@@H](C(N)=O)NC(=O)[C@H](Cc2c[nH]c3ccccc23)NC(=O)[C@H](CCCNC(=N)N)NC(=O)[C@@H](Cc2ccc(F)c(F)c2)NC(=O)[C@H](CCN)NC1=O [Example 26]
Reply | -0.52
